Test: probe aCHRDL2 binding to arrayed compounds – biochemical, biotinylated probe, 635/667 nm fluorescence, primary screen (AID 1100)
Settings: small-molecule microarray, higher = more signal
assayMetric: composite z-score
Write the number on its own, no unit after it.

Previously resolved entries follow.
>>> print(df.to_string())
                                   molecule        assaymetric  numericvalue
0  CC(C)(C)OC(=O)CC[C@@]1(C(=O)N2CCCCC2)N=C(c2ccc(OCCCO)cc2)O[C@@H]1c1ccccc1N=[N+]=[N-]  composite z-score         0.964
1  Cc1ccc(S[C@]2(C(=O)O)CC(=O)N(C3CCCCC3)[C@@H]2c2ccc(CO)cc2)cc1  composite z-score         0.571
2  COc1cccc(C)c1NC(=O)O[C@H]1[C@H](OC(=O)Nc2ccccc2)[C@H](OC(=O)Nc2ccccc2)[C@@H](OC)O[C@@H]1CO  composite z-score         0.708

Please turn your attention to the following entry.
What measured composite z-score goes with C=C(/C(=C/C[C@@H](OC(C)=O)c1ccccc1OCCO)c1cnc2ccccc2c1)C(C)C ?
0.168

###

Target: Torsin-1A-interacting protein 2 (Homo sapiens) (UniProt Q8NFQ8)
Sequence (Q8NFQ8 whole entry, looked up): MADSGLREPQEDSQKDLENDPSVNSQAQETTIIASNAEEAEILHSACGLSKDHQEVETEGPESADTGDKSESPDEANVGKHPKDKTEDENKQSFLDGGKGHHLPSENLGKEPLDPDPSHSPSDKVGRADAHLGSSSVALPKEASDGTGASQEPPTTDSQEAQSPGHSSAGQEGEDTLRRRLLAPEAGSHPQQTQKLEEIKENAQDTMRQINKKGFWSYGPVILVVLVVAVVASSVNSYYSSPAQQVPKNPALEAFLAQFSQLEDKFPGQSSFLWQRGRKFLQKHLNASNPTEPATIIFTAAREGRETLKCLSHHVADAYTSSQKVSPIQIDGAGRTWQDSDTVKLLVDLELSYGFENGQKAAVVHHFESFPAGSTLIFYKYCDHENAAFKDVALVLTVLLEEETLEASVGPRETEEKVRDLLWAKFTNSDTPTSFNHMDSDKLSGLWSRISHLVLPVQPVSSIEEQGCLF
Assay: small molecules binding lysate-expressed LULL1 – cell lysate, human LULL1 lysate, 635/667 nm fluorescence, primary screen (AID 1092);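 further: probe is lysate of COS7 cells overexpressing human LULL1; score merges per-feature 667 nm fluorescence with signal-to-noise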
Details: small-molecule microarray, hLULL1 lysate binding, 635 nm fluorescence; higher = more signal
Label True when composite z-score is at or above 2; otherwise label False.

compound	labelClass
CCCCC(O)C1C=CC2C(=O)N(Cc3ccccc3)C(=O)C2N1n1cnnc1 (stereo not drawn)	True
C=C[C@H](C)[C@H](OC(=O)Nc1ccc(SC)cc1)c1ccc(O)c2ccccc12	False
COc1ccc(C(=O)Nc2ccc(CN3C(=O)[C@@]4(O[C@@H](CC(=O)N5Cc6ccccc6C[C@H]5CO)[C@H]([Si](C)(C)c5ccc(OC)cc5)[C@H]4C)c4ccccc43)cc2)cc1	False
CCCC[C@@H](O)C1=C(COc2ccccc2)Cn2c(=O)n(-c3ccccc3)c(=O)n2[C@H]1CO	False

# bool: composite z-score of O=C1NC(=O)C2C1C=CC(C(O)CCc1ccccc1)N2Nc1ccccn1 (stereo not drawn) >= 2
False

Given COc1cccc(C)c1NC(=O)O[C@H]1[C@H](OC(=O)Nc2ccccc2)[C@H](OC(=O)Nc2ccccc2)[C@@H](OC)O[C@@H]1CO , state whether its composite z-score is at least 2.
True

Hello, I need to know if COc1ccc([Si](C)(C)[C@@H]2[C@@H](CC(=O)N(CCO)Cc3ccccc3)O[C@]3(C(=O)N(C)c4c(Br)cc(C)cc43)[C@H]2C)cc1 has measured composite z-score not below 2. Thanks!
False

###

Test: S. pombe growth modifiers, basal conditions – strain 972, OD600, 24 h, no modulator, primary screen (AID 1090);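 further: basal condition with compound alone and no growth modifier present; test concentration not given here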
Conditions: S. pombe 972 growth, higher = more signal, called active from +8 up or from −8 down
Please note: 1 (yes) applies when z-score is 0.3 or greater, and 0 (no) applies otherwise.

The examples below pair each entry with its known result.
compound	labelClass
C=C[C@@H](O)[C@H]1CC(c2ccccc2)=NO1	0 (no)
COC(=O)[C@@]1(Cc2ccc(OC)cc2)[C@H]2c3cc(C(=O)N(C)C)n(CCF)c3C[C@H]2CN1C(=O)c1ccccc1	1 (yes)

Continue with the compound presented below.
State whether the measured z-score reaches 0.3, counting equality as reaching it, for CCOC(=O)C[C@H]1[C@H](OC(=O)c2cc3ccccc3oc2=O)[C@@H](NC(=O)c2ccc3ccccc3n2)c2cc(OCCCO)ccc2N1C(=O)c1ccc2ccccc2n1
0 (no)

###

Assay: plasmodial surface anion channel blockers, osmotic lysis – cell-based, P. falciparum Indochina, OD700, 1 h, primary screen (AID 1154)
Details: P. falciparum Indochina infected RBC osmotic lysis, higher = more signal, called active from +8 up or from −8 down
# binarize z-score: threshold 4 inclusive, high side Yes, low side No

Decide: is the reported value of z-score for COC(=O)C(CC#Cc1ccc2c(c1)[C@]1(C(=O)N2)[C@H](c2ccc(O)cc2)N2[C@H](c3ccccc3)[C@H](c3ccccc3)OC(=O)[C@H]2[C@@H]1C(N)=O)C(=O)OC equal to or greater than 4?
No

Is the recorded value of z-score equal to or greater than 4 for this compound? O=C(CS)NCCCCCNC(=O)[C@@H]1C[C@@H]2C(=O)N3CCC[C@H]3C(=O)N2[C@@H]1c1ccc(O)cc1
No

Confirm if z-score reported for the compound Cc1ccc(C(C)CC(O)C2C=CC3C(=O)N(Cc4ccccc4)C(=O)C3N2n2cnnc2)o1 (configuration not stated) is 4 or above.
No

###

Molecular target: Concanavalin-A (Canavalia ensiformis)
Assay: compounds binding concanavalin A lectin – biochemical, small-molecule microarray, Alexa647 label, 635 nm, artefact control for SMM control protein annotation, primary screen (AID 1127);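 further: z combines 667 nm emission intensity with signal-to-noise across three replicate slides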
Conditions: ConA-A647 binding fluorescence, higher = more signal
Please enter condition met where composite z-score is greater than or equal to 1, and condition not met where it is lower.

Known results for compounds:
compound	labelClass
COCCOC(=O)N1C(=O)[C@@]2(c3cc(C#CCNC(N)=O)ccc31)[C@H](c1ccc(OCCO)cc1)N1[C@H](c3ccccc3)[C@H](c3ccccc3)OC(=O)[C@H]1[C@@H]2C(=O)N1CCN(c2ncccn2)CC1	condition met
CC(C)(C)OC(=O)CC[C@]1(C(=O)N2CCCCC2)N=C(c2ccc(OCCCO)cc2)O[C@H]1c1ccccc1CN=[N+]=[N-]	condition met

Check this compound for composite z-score at or above 1: Cc1cc(C)c(C(O)C2C=CC3C(=O)N(c4ccccc4)C(=O)C3N2Nc2ccccc2)c(C)c1 (stereo unspecified)
condition met

Determine whether measured composite z-score meets or exceeds 1 for C=CCNC(=O)[C@@H]1[C@H]2C(=O)O[C@H](c3ccccc3)[C@H](c3ccccc3)N2[C@H](c2ccc(O)cc2)[C@@]12C(=O)Nc1ccc(C#CCCO)cc12
condition not met

###

Test: probe aShh binding to arrayed compounds – biochemical, biotinylated probe, 635/667 nm fluorescence, primary screen (AID 1114);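 further: probe is biotin-labelled aShh protein from a stem cell growth factor screen; measures binding of labelled protein to compounds printed on the slide; score merges feature fluorescence at 667 nm with signal-to-noise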
Conditions: small-molecule microarray, higher = more signal
assayMetric: composite z-score
Form rule: numeric answer, no unit written next to it.

# input compound: COc1ccc([Si](C)(C)[C@H]2[C@H](CC(=O)N3CCC[C@H]3CO)O[C@@]3(C(=O)N(Cc4ccc(N5C(=O)c6cccc7cccc5c67)cc4)c4ccccc43)[C@@H]2C)cc1 ; wanted: its composite z-score
0.151

Fill blank: measured composite z-score of the compound CN(C)CCCCNC(=O)[C@H]1C[C@H]2C(=O)N[C@@H](CCCC[N+](C)(C)C)C(=O)N2[C@H]1c1cccc(OCCO)c1 is ____.
0.13

# lookup: composite z-score of NC(=O)NCC#Cc1ccc2c(c1)[C@]1(C(=O)N2)[C@H](c2ccc(O)cc2)N2[C@H](c3ccccc3)[C@H](c3ccccc3)OC(=O)[C@H]2[C@@H]1C(=O)NC[C@H](O)c1ccccc1
-0.276

###

Assay: probe aDKK1 binding to arrayed compounds – biochemical, biotinylated probe, 635/667 nm fluorescence, primary screen (AID 1099);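 further: score merges 667nm spot fluorescence with signal to noise across triplicate slides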
Settings: small-molecule microarray, higher = more signal
assayMetric: composite z-score

Example entries and their recorded answers appear below.
                                   molecule  result
0  C=C[C@H](C)[C@H](OC(=O)Nc1ccc(SC)cc1)c1ccc(O)c2ccccc12  -0.579
1  CCOC(=O)C[C@H]1[C@H](OC(=O)c2ccc(C(=O)c3ccccc3)cc2)[C@@H](NC(=O)C2CCCCC2)c2cc(OCCCO)ccc2N1C(=O)Cc1ccc(OC)cc1   0.765
2  O=C1C[C@@](C(=O)O)(c2ccc([N+](=O)[O-])cc2)[C@@H](c2ccc(CO)cc2)N1CC12CC3CC(CC(C3)C1)C2    0.28

Dear colleague, I am looking for the recorded composite z-score of the following compound: O=c1c2ccc(Br)cc2nc(-c2ccccc2)n1Cc1cccc(O)c1
0.864

###

Biological target: Torsin-1A (Homo sapiens)
Experiment: torsin A mutant lysate binding on microarrays – cell lysate, small-molecule microarray, COS7 lysate, 635/667 nm fluorescence, primary screen (AID 1150);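 further: score pools 667 nm emission and signal to noise measuring lysate protein binding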
Settings: COS7 hTOR1A mutant lysate, 635 nm fluorescence, higher = more signal
Each entry below carries its recorded composite z-score.
Please reply with the value in numeric form only.

molecule	targetOrTestSystem	composite z-score
CCCCC(=C=CC[C@H](O)c1cccc(OCCO)c1)C[C@H](O)COCc1ccccc1	Torsin-1A (Homo sapiens)	0.0056

# composite z-score lookup, item COc1ccc([Si](C)(C)[C@H]2[C@H](CC(=O)N3CCC[C@H]3CO)O[C@@]3(C(=O)N(Cc4ccc(N5C(=O)c6cccc7cccc5c67)cc4)c4ccccc43)[C@@H]2C)cc1
0.397

What measured composite z-score goes with C=C(CCCC)/C(=C/C[C@@H](OC(=O)c1ccncc1)c1ccccc1OCCO)c1cc(C(=O)OC)ccc1OC ?
1.1

Entry CCCC=C(CCC)[C@@H](NS(=O)(=O)c1cccc2cccnc12)c1ccc(C(=O)OC)cc1 : reported composite z-score = ?
0.0731
